- System: HS 578T breast
- EXPERIMENTAL DETAILS: NCI tumour cell line growth inhibition, 48 h
REPORTED METRIC: TGI

Ask: What measured TGI goes with COc1ccc(CCCCl)c(C2=NCCc3cc(OC)c(OC)cc32)c1 ?
Result: > 100 µM

Ask: Same thing, different compound: CNC(=O)Nc1nc2ccc([N+](=O)[O-])cc2[nH]1
Result: > 100 µM

Ask: Now try CN1C2=C(CC3=C1CC(C)(C)CC3=O)C(=O)CC(C)(C)C2 .
Result: > 100 µM

Ask: And what about the compound Cc1cc2c(cc1Cl)SC(NNC(=O)c1ccco1)=NS2(=O)=O ?
Result: > 10 µM

Ask: Check CN1CC[C@]23c4c5ccc(O)c4O[C@H]2C(O)CC[C@@]3(O)[C@H]1C5 (stereo not given in full) too.
Result: > 100 µM

---

- Test system: NCI/ADR-RES ovarian
- EXPERIMENTAL DETAILS: NCI tumour cell line growth inhibition, 48 h
Task for the reader: assign each of the following compounds its reported TGI.
Answer in µM, number only, no unit symbol.

Ask: Can you look up TGI on NCI/ADR-RES ovarian for O=C(O)Cc1c(-c2ccc([N+](=O)[O-])cc2)c(=O)oc2cc(O)ccc12 ?
Result: 54.6

Ask: What would you report for Cc1cccc(/C=C/c2c(C(=O)/C=C/c3ccccc3)c(C)nc3ccccc23)c1 ?
Result: 4.65

Ask: Similarly, CN1CN(c2ccccc2)C2(CCN(Cc3csc4ccccc34)CC2)C1=O ?
Result: 61.1

Ask: # repeat for CCOC(=O)/C(C=Nc1ccc(-c2nc3ccccc3[nH]2)cc1)=C(/C)O
Result: 32.2

---

- Tested on: HCC-2998 colon
- EXPERIMENTAL DETAILS: NCI tumour cell line growth inhibition, 48 h
REPORTED METRIC: TGI

Ask: Request the reported TGI associated with COc1ccc(-c2cc3c(c4cc(OC)ccc24)C(=O)OC3=O)cc1
Result: > 100 µM

Ask: Further, for CCOc1cccc(/C=N/N=C2\C(=O)Nc3c(Cl)cc(Cl)cc32)c1O ?
Result: > 100 µM

Ask: Repeat with N=C1C(c2nc3ccccc3s2)=C(O)CN1c1ccc(F)c(Cl)c1
Result: > 100 µM

Ask: Moving on to CC1=NN(c2cccc(Cl)c2)C(=N/c2nc3ccccc3s2)/C1=C\c1ccc(Cl)cc1
Result: 31 µM

Ask: Continue with O=C(O)CN(CC(=O)O)Cc1cc(C#Cc2ccc(C#Cc3ccccc3)cc2)cc(CN(CC(=O)O)CC(=O)O)n1
Result: > 72.4 µM

Ask: Moving on to O=C(CCCCCCNC(=O)c1cnc(N(c2ccccc2)c2ccccc2)nc1)NO
Result: 12.5 µM

Ask: What would you report for O=C(O)CCC(=O)N1c2ccccc2CC1c1c[nH]c2ccccc12 (configuration not stated) ?
Result: > 100 µM

Ask: Same question for O=[N+]([O-])C(=C(Nc1ccccc1)Nc1ccccc1)/C(Cl)=C(\Cl)[N+](=O)[O-] please.
Result: 28.9 µM

Ask: Repeat with CC(=O)OCC1=C(C(=O)O)N2C(=O)C(NC(=O)CSc3ccncc3)C2SC1 (configuration not stated)
Result: > 100 µM

Ask: // query: COc1cc(Br)c(C=Nc2cccc3cc(OC)c(OC)cc23)cc1OC
Result: > 100 µM

Ask: Now consider O=C(COc1ccc(Cl)cc1)N1N=C(c2ccc(Cl)cc2)CC1(O)c1ccccc1 (configuration not stated) .
Result: > 100 µM

Ask: Could you do the same for O=S1(=O)OCCOS(=O)(=O)C1S(=O)(=O)c1ccc2ccccc2c1 , please?
Result: > 100 µM

Ask: Now try CCN(C(=O)N[C@@H](Cc1ccccc1)C(=O)N[C@@H](CC(C)C)C(=O)OC)c1ccccc1 .
Result: > 100 µM

Ask: Next compound: CC[C@@]1(O)C(=O)OCc2c1cc1n(c2=O)Cc2c-1nc1ccccc1c2/C=N\NC(=O)C(N)CO (some centres not stated)
Result: > 100 µM

Ask: Consider next the compound CC12O[C@]3([C@H](C(=O)N4CCOC43C)[C@H]1Cl)[C@H]1O[C@H]12 (some centres not stated) in the same way.
Result: > 100 µM

Ask: Could you do the same for COC(=O)[C@H](Cc1ccccc1)NP(=O)(OCCC#N)OCC1OC(n2cc(C)c(=O)[nH]c2=O)CC1N=[N+]=[N-] (some centres not stated) , please?
Result: > 100 µM

Ask: Similarly, CC(C)Cn1cnc2c(SCc3ccc(Cl)cc3Cl)nc(N)nc21 ?
Result: 37.4 µM

Ask: And the next one, CN(CCNC(=O)c1nn(-c2ccccc2)c2c1Cc1ccccc1-2)CCNC(=O)c1nn(-c2ccccc2)c2c1Cc1ccccc1-2 ?
Result: 3.13 µM

Ask: Thanks! And CCN1CCC(O)(c2ccc(Oc3ccccc3)cc2)C(C(=O)c2ccc(Oc3ccccc3)cc2)C1 (configuration not stated) ?
Result: 19.6 µM

Ask: Entry Cn1c(=O)c2c(nc3n(CCCCl)c(=O)ccn23)n(C)c1=O please
Result: > 100 µM

Ask: Note, next up: COc1ccc(C23C(=O)c4ccccc4N2O[C@H]2C(=O)N(c4ccccc4)C(=O)[C@H]23)cc1 (some centres not stated)
Result: > 100 µM

Ask: Quick one: Cc1cc2c(cc1C)OC(=O)CC2
Result: > 100 µM

Ask: Same question, CC(=O)OCCCC(NC(=O)OC(C)(C)C)C(=O)NC(CCCOC(C)=O)C(=O)NC(Cc1ccc([N+](=O)[O-])cc1)C(=O)NCC(=O)OCc1ccccc1 (configuration not stated) this time
Result: 33.4 µM

Ask: Follow-up entry: O=C(Nc1ccc([As](=O)(O)O)cc1)Nc1cccc(Cl)c1Cl
Result: > 100 µM

Ask: Would you kindly repeat that for CN1CCC2(CC1)ONC1=NCCN12 ?
Result: 43.8 µM

Ask: Repeat with CC1=C(C(=O)Nc2cc(=O)n(C)c(=O)n2C)C(c2ccco2)C(C(=O)Nc2cc(=O)n(C)c(=O)n2C)=C(C)N1
Result: > 100 µM

Ask: Can you handle O=C(NCCCCNc1cccccc1=O)OCc1ccccc1 next?
Result: > 100 µM

Ask: Ok, now COC12C=C/C(=C(/C(=O)OCc3cncnc3)C(=O)CCCCCCCCC3(OC)C=C/C(=C(/C(=O)OCc4cncnc4)C(=O)CCCCCCCC1)O3)O2
Result: 1.61 µM

Ask: Now the compound CN(O)C(=O)SCC(NC(=O)CCC(N)C(=O)O)C(=O)NCC(=O)O (configuration not stated)
Result: > 2 µM

Ask: Then what about the compound Cc1cccc(/C=C/c2c(C(=O)/C=C/c3ccccc3)c(C)nc3ccccc23)c1 ?
Result: 3.49 µM

Ask: How about this compound: COc1ccc(/C=C2\NC(=S)N(/C=C3\C(=O)Oc4ccccc4C3=O)C2=O)cc1OC
Result: > 100 µM

Ask: Same question for CN(C)CCCNC(=O)c1c(O)c2ccccc2[nH]c1=O please.
Result: > 100 µM

---

- Tested on: M14 melanoma
- EXPERIMENTAL DETAILS: NCI tumour cell line growth inhibition, 48 h
Please respond with reported GI50 for every item in the list.

Ask: // fetch M14 melanoma GI50 for CN(O)C(=O)SCC(NC(=O)CCC(N)C(=O)O)C(=O)NCC(=O)O (stereo not given)
Result: > 2000 µM

Ask: Check Fc1ccc(C2CC(c3cccc(Nc4ccncc4)c3)=NN2c2ccc(Cl)cc2)cc1 (stereo not given) too.
Result: 1.77 µM

Ask: Param item: COc1ccc(-c2nn(-c3cccc(Cl)c3)cc2-c2cc(-c3cccs3)[nH]c(=S)n2)cc1
Result: 2.81 µM

Ask: Moving on to the next compound: Cc1nnn[n-]1.N.N.N.N.N.[Cl-].[Co+3]
Result: > 100 µM

Ask: Also, COc1ccc(C(=S)N2CCN(c3cccc(C)c3)CC2)cc1OC please.
Result: 3.18 µM

---

- Test system: CAKI-1 renal
- EXPERIMENTAL DETAILS: NCI tumour cell line growth inhibition, 48 h
Please provide measured TGI for the entries that follow.

Ask: What does the data say about its TGI? Entry: O=c1cc(-c2ccccc2)c2ccccc2[nH]1
Result: 90.2 µM

Ask: Could you do the same for OC1c2ccccc2CC12Cc1ccccc1C2 (stereo unspecified) , please?
Result: > 100 µM

Ask: Now the same for NC(=O)C(=O)N/N=C1\C(=O)N(c2ccc(Cl)cc2Cl)C(=O)C1C(=O)Nc1ccc(Cl)cc1Cl (stereo unspecified)
Result: > 100 µM

Ask: Same again, this time with O=C1CSC(=S)N1
Result: > 100 µM

Ask: What do you get for Fc1ccc(C(OCCN2CCN(CCCCl)CC2)c2ccc(F)cc2)cc1 ?
Result: > 100 µM

Ask: Same for O=C1C(Cl)=C(Nc2cccc(Cl)c2)C(=O)N1Cc1ccc(Cl)cc1
Result: 13.9 µM

Ask: Try this compound too: CNC(=O)Nc1nc2ccc([N+](=O)[O-])cc2[nH]1
Result: > 100 µM

Ask: Repeat with Cc1cc(CC(=O)NCCO)n(CCO)c(=O)c1
Result: > 100 µM

Ask: Can you check CC12O[C@]3([C@H](C(=O)N4CCOC43C)[C@H]1Cl)[C@H]1O[C@H]12 (stereo partly specified) next?
Result: > 100 µM

Ask: Try this compound too: CN(CCO)CC[C@H](CSc1ccccc1)Nc1ccc(S(=O)(=O)NC(=O)c2ccc(N3CCC([C@@H](O)c4ccccc4-c4ccc(Cl)cc4)CC3)cc2)cc1S(=O)(=O)C(F)(F)F
Result: > 29.2 µM

Ask: CC(=O)OCC1=C(C(=O)O)N2C(=O)C(NC(=O)CSc3ccncc3)C2SC1 (stereo unspecified) , same question.
Result: > 100 µM
